MEASUREMENT DESCRIPTION: Solubility in water
ATTRIBUTE MEASURED: solubility (mg/mL)
Reply numerically in mg/mL, unit not repeated.

Incoming: Return solubility for the following molecule: Cl.NC(C[S+]([O-])C(c1ccccc1)c1ccccc1)=NO (centres unmarked)
Outgoing: 100

====

Tested on: mice
MEASUREMENT DESCRIPTION: Toxicity, intraperitoneal administration, mice
Assay type: in vivo
RECORDED CONDITIONS: intraperitoneal administration

{"columns": ["COMPOUND", "LD-O"],
 "data": [
  ["Cl.NC(CCC[S+]([O-])C(c1ccccc1)c1ccccc1)=NO (stereo not drawn)", "greater than 512 mg/kg"],
  ["O=C(CCC[S+]([O-])C(c1ccccc1)c1ccccc1)NO (stereo not drawn)", "greater than 1,024 mg/kg"],
  ["Cl.[O-][S+](CCN1CCOCC1)C(c1ccccc1)c1ccccc1 (stereo not drawn)", "greater than 512 mg/kg"],
  ["O=C(CC[S+]([O-])C(c1ccccc1)c1ccccc1)NO (stereo not drawn)", "greater than 1,024 mg/kg"]
]}

Each recorded value in this set is attributed to patent US4127722A.
